B1: library; a variant is named by its letters at N, in order (parent)
chain: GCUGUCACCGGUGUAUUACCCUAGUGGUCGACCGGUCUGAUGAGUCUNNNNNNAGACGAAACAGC

# Variants of: B1
# procedure_summary: FACS-Seq fitted mean relative fluorescence mCherry/BFP without ligand (log10 relative fluorescence); ligand: hypoxanthine (xanthine aptamer); higher = higher reporter protein expression
# condition_notes: HEK293T, ligand present: no
Record yes (1) whenever FACS-Seq fitted mean (log10) is at 0.2 or higher; record no (0) when lower.

Below are worked cases with known answers.
# mutant_code, label_class
records = [
    ("GGGAAU", "yes (1)"),
    ("GGGUAG", "no (0)"),
    ("UGGGGA", "no (0)"),
    ("AAGCAA", "yes (1)"),
    ("UCGUGC", "yes (1)"),
    ("AAGCGA", "yes (1)"),
    ("UGCGGA", "yes (1)"),
    ("ACGCGC", "yes (1)"),
]

Task item: Given the entry GAAGAC , answer whether its FACS-Seq fitted mean (log10) meets or surpasses 0.2.
Reply: yes (1)

Task item: Answer whether FACS-Seq fitted mean (log10) of GCGGGG is greater than or equal to 0.2.
Reply: no (0)

Task item: Given GGGUGG , state whether its FACS-Seq fitted mean (log10) is at least 0.2.
Reply: no (0)

Task item: Decide: is the reported value of FACS-Seq fitted mean (log10) for GACGAU equal to or greater than 0.2?
Reply: yes (1)

Task item: Could you tell me if the measured FACS-Seq fitted mean (log10) of AGCUCG reaches 0.2 or more?
Reply: no (0)
